Reference source: ChEMBL document CHEMBL3739364

# assay system: Amine oxidase [flavin-containing] A (Homo sapiens, UniProt P21397)
# method notes: Inhibition of human recombinant MAO-A using p-tyramine as substrate after 15 mins by UV/Vis spectrophotometer analysis
reported endpoint: pIC50
Numbers only, as −log10 of the molar value.

Examples with their reported pIC50 follow.
>>> experimental_value("O=C1O[C@@H](CNO)CN1c1ccc(N2CCOCC2)c(F)c1")
3.84
>>> experimental_value("O=C(C1CC1)N(O)C[C@H]1CN(c2ccc(N3CCOCC3)c(F)c2)C(=O)O1")
3.95
>>> experimental_value("CC(=O)N1CCN(c2ccc(N3C[C@H](CNO)OC3=O)cc2F)CC1.O=C(O)C(F)(F)F")
4.33

Quick one: pIC50 for CCC(=O)N(O)C[C@H]1CN(c2ccc(N3CCOCC3)c(F)c2)C(=O)O1 ?
3.94

---

# assay system: MAO-A (amine oxidase [flavin-containing] A) (Homo sapiens, UniProt P21397)
# Sequence (P21397 whole entry): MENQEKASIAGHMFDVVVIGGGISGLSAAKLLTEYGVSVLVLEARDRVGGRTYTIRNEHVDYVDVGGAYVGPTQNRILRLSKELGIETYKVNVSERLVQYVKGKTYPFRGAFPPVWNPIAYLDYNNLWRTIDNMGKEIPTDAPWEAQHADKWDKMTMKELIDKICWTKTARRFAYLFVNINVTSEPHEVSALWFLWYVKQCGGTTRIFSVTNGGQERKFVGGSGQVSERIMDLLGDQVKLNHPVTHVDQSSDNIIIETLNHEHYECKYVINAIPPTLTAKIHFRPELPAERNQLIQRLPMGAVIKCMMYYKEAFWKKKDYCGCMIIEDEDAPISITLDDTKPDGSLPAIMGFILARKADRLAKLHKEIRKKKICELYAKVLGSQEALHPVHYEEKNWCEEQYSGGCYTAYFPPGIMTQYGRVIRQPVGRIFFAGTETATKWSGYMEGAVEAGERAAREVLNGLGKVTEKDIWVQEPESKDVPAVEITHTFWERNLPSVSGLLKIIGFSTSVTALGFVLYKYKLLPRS
# method notes: Inhibition of human recombinant MAO-A using p-tyramine as substrate at 50 to 200 uM measured up to 50 mins by ELISA screening analysis
# test context: probe p-tyramine
reported endpoint: inhibition at 50 min

// batch mode: one inhibition at 50 min value per listed entry
1. CC(=O)NC[C@H]1CN(c2ccc(N3CCOCC3)c(F)c2)C(=O)O1
2. CCC(=O)ON(C[C@H]1CN(c2ccc(N3CCOCC3)c(F)c2)C(=O)O1)C(=O)CC
3. CCC(=O)ON(C[C@H]1CN(c2ccc(N3CCN(C(C)=O)CC3)c(F)c2)C(=O)O1)C(=O)CC
4. CC(=O)N(O)C[C@H]1CN(c2ccc(N3CCN(C(C)=O)CC3)c(F)c2)C(=O)O1

1. ≥ 50%
2. < 50%
3. < 50%
4. < 50%

// batch mode: one inhibition at 50 min value per listed entry
1. CC(=O)N(O)C[C@H]1CN(c2ccc(N3CCOCC3)c(F)c2)C(=O)O1
2. O=C(C1CC1)N(O)C[C@H]1CN(c2ccc(N3CCOCC3)c(F)c2)C(=O)O1
3. CC(C)C(=O)N(O)C[C@H]1CN(c2ccc(N3CCOCC3)c(F)c2)C(=O)O1
4. CC(=O)N1CCN(c2ccc(N3C[C@H](CNO)OC3=O)cc2F)CC1.O=C(O)C(F)(F)F
5. CCC(=O)N(O)C[C@H]1CN(c2ccc(N3CCOCC3)c(F)c2)C(=O)O1
6. O=C(ON(C[C@H]1CN(c2ccc(N3CCOCC3)c(F)c2)C(=O)O1)C(=O)C1CC1)C1CC1

1: < 50%; 2: ≥ 50%; 3: < 50%; 4: ≥ 50%; 5: ≥ 50%; 6: < 50%

// batch mode: one inhibition at 50 min value per listed entry
1. CC(C)C(=O)ON(C[C@H]1CN(c2ccc(N3CCOCC3)c(F)c2)C(=O)O1)C(=O)C(C)C
2. CC(=O)N1CCN(c2ccc(N3C[C@H](CN(OC(=O)C(C)C)C(=O)C(C)C)OC3=O)cc2F)CC1
3. CC(=O)ON(C[C@H]1CN(c2ccc(N3CCOCC3)c(F)c2)C(=O)O1)C(C)=O
4. CC(=O)ON(C[C@H]1CN(c2ccc(N3CCN(C(C)=O)CC3)c(F)c2)C(=O)O1)C(C)=O
5. O=C1O[C@@H](CNO)CN1c1ccc(N2CCOCC2)c(F)c1
6. CCC(=O)N(O)C[C@H]1CN(c2ccc(N3CCN(C(C)=O)CC3)c(F)c2)C(=O)O1
7. CC(=O)N1CCN(c2ccc(N3C[C@H](CN(OC(=O)C4CC4)C(=O)C4CC4)OC3=O)cc2F)CC1

1: < 50%; 2: < 50%; 3: < 50%; 4: < 50%; 5: ≥ 50%; 6: < 50%; 7: < 50%
